# TESTED_ON: CYP2C8 (Homo sapiens (Human), UniProt P10632)
# Sequence (P10632 whole entry): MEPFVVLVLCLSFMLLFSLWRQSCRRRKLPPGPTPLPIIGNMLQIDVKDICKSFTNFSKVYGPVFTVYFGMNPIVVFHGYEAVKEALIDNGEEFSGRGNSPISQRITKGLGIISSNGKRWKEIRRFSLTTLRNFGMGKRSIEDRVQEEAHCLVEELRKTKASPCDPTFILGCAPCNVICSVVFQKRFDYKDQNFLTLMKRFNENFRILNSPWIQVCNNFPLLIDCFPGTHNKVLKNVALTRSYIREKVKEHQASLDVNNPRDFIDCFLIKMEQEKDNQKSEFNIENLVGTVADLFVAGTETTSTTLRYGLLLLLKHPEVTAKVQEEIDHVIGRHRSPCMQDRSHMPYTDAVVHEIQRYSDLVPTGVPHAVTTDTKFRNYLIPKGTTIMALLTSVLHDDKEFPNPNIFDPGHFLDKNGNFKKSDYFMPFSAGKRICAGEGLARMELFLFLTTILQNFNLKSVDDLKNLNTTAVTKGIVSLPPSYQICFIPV
# EXPERIMENT_DESCRIPTION: CYP inhibition assay in mixed human liver microsomes
# Format: in vitro ADME
# MEASUREMENT_CONTEXT: mixed (pooled) human liver microsomes, read-out: Inhibition rate % CYP2C8
# Method: The inhibitory effects of the compounds on seven enzymes, i.e., CYP1A2, CYP2C9, CYP2C19, CYP2D6, CYP3A4 (midazolam), CYP2B6, and CYP2C8, were evaluated at a concentration of 10 μM. Mixed human liver microsomes, which were previously stored in a −80° C. refrigerator before use, were taken out and thawed in a water bath at 37° C. before use, and placed on ice for further operation. […]
Catalogue of compounds with associated inhibition at 10 µM
Write the answer as a number in %, unit excluded.

[
  {
    "SMILES_INPUT": "COC(=O)NS(=O)(=O)c1sc(CC(C)C)cc1-c1ccc(Cn2ccnc2C)cc1C",
    "TESTED_ON": "CYP2C8 (Homo sapiens (Human), UniProt P10632)",
    "inhibition at 10 µM [%]": 12.6
  },
  {
    "SMILES_INPUT": "CCc1nccn1Cc1ccc(-c2cc(CC(C)C)sc2S(=O)(=O)NC(=O)OC)cc1C#N",
    "TESTED_ON": "CYP2C8 (Homo sapiens (Human), UniProt P10632)",
    "inhibition at 10 µM [%]": 50.6
  }
]

-- ask Which value of inhibition at 10 µM has been reported for COC(=O)NS(=O)(=O)c1sc(CC(C)C)c(C)c1-c1ccc(Cn2ccnc2C)cc1 in the records?
-- reply 33.6

###

# TESTED_ON: CYP2C9 (Homo sapiens (Human))
# Sequence (P11712 whole entry): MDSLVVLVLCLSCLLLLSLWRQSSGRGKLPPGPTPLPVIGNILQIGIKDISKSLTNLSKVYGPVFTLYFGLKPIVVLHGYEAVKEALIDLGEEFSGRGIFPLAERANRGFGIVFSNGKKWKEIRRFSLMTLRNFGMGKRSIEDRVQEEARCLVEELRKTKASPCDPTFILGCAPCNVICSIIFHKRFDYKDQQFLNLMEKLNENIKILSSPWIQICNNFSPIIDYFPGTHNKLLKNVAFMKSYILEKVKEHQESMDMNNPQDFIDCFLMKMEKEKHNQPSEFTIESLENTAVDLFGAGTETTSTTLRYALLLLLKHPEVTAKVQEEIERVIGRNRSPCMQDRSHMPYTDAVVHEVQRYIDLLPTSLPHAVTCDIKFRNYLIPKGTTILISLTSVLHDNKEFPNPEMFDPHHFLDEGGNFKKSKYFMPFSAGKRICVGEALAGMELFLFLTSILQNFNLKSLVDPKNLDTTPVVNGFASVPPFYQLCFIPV
# EXPERIMENT_DESCRIPTION: CYP inhibition assay in mixed human liver microsomes
# Assay type: in vitro ADME
# MEASUREMENT_CONTEXT: mixed (pooled) human liver microsomes, read-out: Inhibition rate % CYP2C9
VALUE_TYPE: inhibition at 10 µM (%)
Write the answer as a number in %, unit excluded.

Worked cases, inhibition at 10 µM given:
[
  {
    "COMPOUND": "CCCCOC(=O)NS(=O)(=O)c1sc(CC(C)C)cc1-c1ccc(Cn2ccnc2C)c(C#N)c1 [Compound I-12]",
    "TESTED_ON": "CYP2C9 (Homo sapiens (Human))",
    "VALUE_TYPE": "inhibition at 10 µM",
    "MEAS_VALUE": 45.8
  },
  {
    "COMPOUND": "CCc1nccn1Cc1ccc(-c2cc(CC(C)C)sc2S(=O)(=O)NC(=O)OC)cc1C#N [Compound I-14]",
    "TESTED_ON": "CYP2C9 (Homo sapiens (Human))",
    "VALUE_TYPE": "inhibition at 10 µM",
    "MEAS_VALUE": 32.8
  },
  {
    "COMPOUND": "COC(=O)NS(=O)(=O)c1sc(CC(C)C)cc1-c1ccc(Cn2ccnc2C(C)(C)C)c(C#N)c1 [Compound I-13]",
    "TESTED_ON": "CYP2C9 (Homo sapiens (Human))",
    "VALUE_TYPE": "inhibition at 10 µM",
    "MEAS_VALUE": 20.2
  },
  {
    "COMPOUND": "COC(=O)NS(=O)(=O)c1sc(CC(C)C)c(C)c1-c1ccc(Cn2ccnc2C)cc1 [Compound I-16]",
    "TESTED_ON": "CYP2C9 (Homo sapiens (Human))",
    "VALUE_TYPE": "inhibition at 10 µM",
    "MEAS_VALUE": 46.8
  },
  {
    "COMPOUND": "COC(=O)NS(=O)(=O)c1sc(CC(C)C)cc1-c1ccc(Cn2ccnc2C)cc1C [Compound I-11]",
    "TESTED_ON": "CYP2C9 (Homo sapiens (Human))",
    "VALUE_TYPE": "inhibition at 10 µM",
    "MEAS_VALUE": 28.3
  }
]

-- ask Which value of inhibition at 10 µM has been reported for COC(=O)NS(=O)(=O)c1sc(CC(C)C)c(C)c1-c1ccc(Cn2ccnc2Cl)cc1 [Compound I-34] in the records?
-- reply 77.3
